Recorded measurements of growth inhibition, one per entry
# protocol_details: NCI Yeast Anticancer Drug Screen. Data for the rad50 strain (AID 155);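 also: 0% = growth of vehicle-only cultures of the same strain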
# recorded_conditions: S. cerevisiae rad50 strain growth inhibition; at 50.0 µM; active compounds read high
The panel holds about 79,000 compounds, 15% with a hit somewhere; the sample as a whole holds those more often.
The reply should be a number in %, with the unit left off.

Example cases with answers are listed next.
### Prompt Given the molecule O=c1[nH]nc(Sc2ccccc2)c(=O)[nH]1 , what is its reported growth inhibition?
### Response -11.8

### Prompt // query: CC(=O)Oc1ccc(C(C)(C)C)cc1
### Response 10.7

### Prompt // query: Cc1ccc(CCCC(=O)O)c2ccc3ccccc3c12
### Response 4.15

### Prompt // query: COc1ccc(/C=C2\N=C(c3ccc(N)cc3)OC2=O)cc1OC
### Response 10.1

### Prompt // query: CC(=O)ON(C(=O)c1ccccc1)c1ccccc1
### Response -1.7

New cases:
### Prompt Given the molecule O=C1CCCCCCCCCCC1 , what is its reported growth inhibition?
### Response -8.1

### Prompt // query: COCc1ccc(C(C)(C)CC(C)(C)C)cc1
### Response 32.6

### Prompt // query: CC(C)c1ccc(/C=C2/CCCCC2=O)cc1
### Response -2.55

### Prompt // query: CCOC(=O)c1cc(=O)[nH]c(N)n1
### Response -6.4

### Prompt // query: CC(=O)CC(=O)Nc1cccc(NC(=O)CC(C)=O)c1
### Response -16.4

### Prompt // query: C=CCOC(=O)C1CC=CCC1C(=O)OCC=C (centres undefined)
### Response -17.6

### Prompt // query: COc1cccc(C2c3cc4c(cc3OC(Nc3ccccc3)C2C)OCO4)c1OC (centres undefined)
### Response -28.4

### Prompt // query: O=C(O)c1ccccc1Oc1ccc([N+](=O)[O-])cc1[N+](=O)[O-]
### Response 4.3

### Prompt // query: O=C1C=C(N2CCCC2)c2ccccc21
### Response 15.4

### Prompt // query: COc1ccc(OC)c(N=Nc2cc(OC)ccc2OC)c1
### Response -13.6

### Prompt // query: CC(=O)[C@H]1CC[C@H]2[C@@H]3CC(=O)C4=CC(=O)CC[C@]4(C)[C@H]3C(=O)C[C@]12C
### Response 11.3
